- experimentalProtocol: MRT(0 to t) in male Sprague-Dawley rat at 2 mg/kg, iv measured upto 24 hrs by LC-MS/MS analysis
- Format: ADME, organism-based
- conditionParameters: in vivo

[
  {
    "smilesRepresentation": "CN(C(=O)[C@H](Cc1cc(F)cc(F)c1)NC(=O)Cc1c[nH]c2ccc(O)cc12)c1ccc2scnc2c1",
    "MRT last at 24 h": "7.74 min"
  }
]

---

- experimentalProtocol: Half life in male Sprague-Dawley rat at 2 mg/kg, iv measured upto 24 hrs by LC-MS/MS analysis
- Format: ADME, organism-based
- conditionParameters: in vivo
measuredProperty: half-life (min)

[
  {
    "smilesRepresentation": "CN(C(=O)[C@H](Cc1cc(F)cc(F)c1)NC(=O)Cc1c[nH]c2ccc(O)cc12)c1ccc2scnc2c1",
    "measuredProperty": "half-life",
    "numericValue": 11.9
  }
]
